test: Cytotoxicity against human HuH5.2 cells assessed as reduction in cell viability incubated for 72 hrs by measuring intracellular ATP levels

compound: O=C(CN1C(=O)N(Cc2ccccc2)C2(CCCCc3ccccc32)C1=O)NO (stereo unspecified)
reading qualifier: =
CC50 at 72 h / µM: 5.45
--
compound: CN1C(=O)N(CC(=O)NO)C(=O)C12CCCc1ccccc12 (stereo unspecified)
reading qualifier: =
CC50 at 72 h / µM: 143
--
compound: O=C(CN1C(=O)NC2(CCCc3ccccc32)C1=O)NO (stereo unspecified)
reading qualifier: >
CC50 at 72 h / µM: 200
--
compound: O=C1Cn2c(cc3ccccc32)C(=O)N1O
reading qualifier: >
CC50 at 72 h / µM: 200
--
compound: O=C(CN1C(=O)N(Cc2ccccc2)C2(CCCc3ccccc32)C1=O)NO (stereo unspecified)
reading qualifier: =
CC50 at 72 h / µM: 8.9
--
compound: CN1C(=O)N(CC(=O)NO)C(=O)C12CCCCc1ccccc12 (stereo unspecified)
reading qualifier: =
CC50 at 72 h / µM: 112

Where these numbers come from: ChEMBL document CHEMBL4373658
